- experimental.target: ADCK3 (human)
- assay.method.text: KINOMEscan competition binding
- condition.summary: compound 10.0 µM
Give measured kinase still bound, per cent of control for each item. Keep answers brief.
Numbers only, in %.

Check out these entries, answers already filled in.
CC(C)n1nc(-c2cc3cc(O)ccc3[nH]2)c2c(N)ncnc21    57
COC(=O)Nc1ccc(-c2nc(N3CCOCC3)c3cnn(C4CCN(C(=O)OC)CC4)c3n2)cc1    80
COc1ccc(-c2ccc3c(N4CCOCC4)nc(N4C[C@@H](C)O[C@@H](C)C4)nc3n2)cc1CO    87

Input CCC(=O)N1CCN(c2ccc(-n3c(=O)ccc4cnc5ccc(-c6cnc7ccccc7c6)cc5c43)cc2C(F)(F)F)CC1 . Output kinase still bound, per cent of control: 17

* * *

- experimental.target: GAK (human)
- assay.method.text: KINOMEscan competition binding
- condition.summary: compound 10.0 µM
Give measured kinase still bound, per cent of control for each item. Keep answers brief.
Numbers only, in %.

COc1ccc(-c2ccc3c(N4CCOCC4)nc(N4C[C@@H](C)O[C@@H](C)C4)nc3n2)cc1CO    95
COC(=O)Nc1ccc(-c2nc(N3CCOCC3)c3cnn(C4CCN(C(=O)OC)CC4)c3n2)cc1    94
CCC(=O)N1CCN(c2ccc(-n3c(=O)ccc4cnc5ccc(-c6cnc7ccccc7c6)cc5c43)cc2C(F)(F)F)CC1    57

Shifting focus to the molecule that follows.
Input CC(C)n1nc(-c2cc3cc(O)ccc3[nH]2)c2c(N)ncnc21 . Output kinase still bound, per cent of control: 6.2

* * *

- experimental.target: RIPK1 (human) (UniProt Q13546)
- Sequence (Q13546 whole entry, looked up): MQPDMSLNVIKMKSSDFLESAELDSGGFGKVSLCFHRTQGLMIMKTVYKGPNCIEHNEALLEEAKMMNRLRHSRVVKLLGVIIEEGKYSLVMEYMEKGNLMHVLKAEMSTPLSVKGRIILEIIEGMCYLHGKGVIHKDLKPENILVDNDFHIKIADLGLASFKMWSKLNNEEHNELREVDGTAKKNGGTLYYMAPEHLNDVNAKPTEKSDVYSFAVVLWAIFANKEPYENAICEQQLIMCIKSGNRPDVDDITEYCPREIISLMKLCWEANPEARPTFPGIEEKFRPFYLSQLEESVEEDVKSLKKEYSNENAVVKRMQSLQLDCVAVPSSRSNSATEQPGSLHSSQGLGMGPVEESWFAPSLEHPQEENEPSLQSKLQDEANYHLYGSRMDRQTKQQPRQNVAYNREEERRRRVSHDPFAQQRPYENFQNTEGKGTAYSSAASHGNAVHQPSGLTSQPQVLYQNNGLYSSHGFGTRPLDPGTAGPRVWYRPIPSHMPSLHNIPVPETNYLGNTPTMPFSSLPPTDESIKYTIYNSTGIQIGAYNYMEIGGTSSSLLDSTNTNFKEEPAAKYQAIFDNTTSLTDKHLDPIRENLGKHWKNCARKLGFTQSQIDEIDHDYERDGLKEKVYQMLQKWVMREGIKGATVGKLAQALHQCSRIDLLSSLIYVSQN
- assay.method.text: KINOMEscan competition binding
- condition.summary: compound 10.0 µM
Give measured kinase still bound, per cent of control for each item. Keep answers brief.
Numbers only, in %.

Parameter requested: kinase still bound, per cent of control. Apply to each item below.
1. COc1ccc(-c2ccc3c(N4CCOCC4)nc(N4C[C@@H](C)O[C@@H](C)C4)nc3n2)cc1CO
2. COC(=O)Nc1ccc(-c2nc(N3CCOCC3)c3cnn(C4CCN(C(=O)OC)CC4)c3n2)cc1
3. CC(C)n1nc(-c2cc3cc(O)ccc3[nH]2)c2c(N)ncnc21
4. CCC(=O)N1CCN(c2ccc(-n3c(=O)ccc4cnc5ccc(-c6cnc7ccccc7c6)cc5c43)cc2C(F)(F)F)CC1

100
100
100
1.9

* * *

Give measured kinase still bound, per cent of control for each item. Keep answers brief.
- experimental.target: PAK7 (human)
- assay.method.text: KINOMEscan competition binding
- condition.summary: compound 10.0 µM
One number for each entry, in %.

CCC(=O)N1CCN(c2ccc(-n3c(=O)ccc4cnc5ccc(-c6cnc7ccccc7c6)cc5c43)cc2C(F)(F)F)CC1    87
COC(=O)Nc1ccc(-c2nc(N3CCOCC3)c3cnn(C4CCN(C(=O)OC)CC4)c3n2)cc1    80
CC(C)n1nc(-c2cc3cc(O)ccc3[nH]2)c2c(N)ncnc21    8.6

Measured kinase still bound, per cent of control (PAK7 (human)), entry COc1ccc(-c2ccc3c(N4CCOCC4)nc(N4C[C@@H](C)O[C@@H](C)C4)nc3n2)cc1CO : 76

* * *

Give measured per cent of control for each item. Keep answers brief.
- experimental.target: SRPK1 (human) (UniProt Q96SB4)
- Sequence (Q96SB4 whole entry, looked up): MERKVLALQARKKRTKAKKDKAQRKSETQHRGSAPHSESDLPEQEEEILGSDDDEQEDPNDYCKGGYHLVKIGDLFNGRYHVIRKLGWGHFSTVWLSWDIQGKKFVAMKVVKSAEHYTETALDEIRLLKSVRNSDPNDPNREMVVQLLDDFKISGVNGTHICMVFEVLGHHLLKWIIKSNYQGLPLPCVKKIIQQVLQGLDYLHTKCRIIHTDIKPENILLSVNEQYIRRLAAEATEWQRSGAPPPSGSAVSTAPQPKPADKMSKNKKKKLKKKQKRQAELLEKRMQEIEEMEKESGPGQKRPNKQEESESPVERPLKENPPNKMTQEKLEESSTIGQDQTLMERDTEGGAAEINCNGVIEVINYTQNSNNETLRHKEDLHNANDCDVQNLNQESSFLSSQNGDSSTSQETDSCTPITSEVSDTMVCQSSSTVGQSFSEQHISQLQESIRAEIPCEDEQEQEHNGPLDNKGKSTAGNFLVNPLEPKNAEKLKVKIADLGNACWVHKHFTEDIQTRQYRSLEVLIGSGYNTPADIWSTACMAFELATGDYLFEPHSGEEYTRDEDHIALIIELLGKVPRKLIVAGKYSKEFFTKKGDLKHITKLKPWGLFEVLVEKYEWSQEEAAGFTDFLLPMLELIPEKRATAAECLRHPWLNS
- condition.summary: compound 10.0 µM

COC(=O)Nc1ccc(-c2nc(N3CCOCC3)c3cnn(C4CCN(C(=O)OC)CC4)c3n2)cc1    102%
CC(C)n1nc(-c2cc3cc(O)ccc3[nH]2)c2c(N)ncnc21    63%
COc1ccc(-c2ccc3c(N4CCOCC4)nc(N4C[C@@H](C)O[C@@H](C)C4)nc3n2)cc1CO    94%

Shifting focus to the compound that follows.
Input CCC(=O)N1CCN(c2ccc(-n3c(=O)ccc4cnc5ccc(-c6cnc7ccccc7c6)cc5c43)cc2C(F)(F)F)CC1 . Output per cent of control: 110%
